study_system: T1, human GPC3-His protein (human, UniProt P51654 25-559)
T1 construct: also called human GPC3 protein; not shown: His tag
test_protocol: SPR, antibody captured on Protein A chip, human GPC3-His analyte;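 further: measured at 25 °C flow cell, human GPC3-His injected at five concentrations up to 200 nM, 240 s association, up to 600 s dissociation, double-referenced, fitted to Langmuir 1:1 model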
measured_metric: kon (M⁻¹ s⁻¹)

| binder | measured_metric | unit_abbrev | measurement |
| --- | --- | --- | --- |
| F1.21.8 (antibody, human IgG1, kappa, V domains shown, Human-murine chimeric antibody) VH: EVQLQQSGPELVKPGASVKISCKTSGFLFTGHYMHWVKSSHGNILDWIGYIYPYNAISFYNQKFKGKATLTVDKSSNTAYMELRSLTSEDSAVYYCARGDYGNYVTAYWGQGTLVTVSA VL: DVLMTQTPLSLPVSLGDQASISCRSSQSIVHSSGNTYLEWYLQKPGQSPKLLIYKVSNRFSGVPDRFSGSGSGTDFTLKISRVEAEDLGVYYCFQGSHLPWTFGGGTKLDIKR | kon | M⁻¹ s⁻¹ | 255000 |
| F1.41.17 (antibody, human IgG1, kappa, V domains shown, Human-murine chimeric antibody) VH: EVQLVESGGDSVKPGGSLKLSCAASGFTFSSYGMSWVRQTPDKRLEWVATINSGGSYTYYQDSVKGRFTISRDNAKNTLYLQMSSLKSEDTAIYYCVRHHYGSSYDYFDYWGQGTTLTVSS VL: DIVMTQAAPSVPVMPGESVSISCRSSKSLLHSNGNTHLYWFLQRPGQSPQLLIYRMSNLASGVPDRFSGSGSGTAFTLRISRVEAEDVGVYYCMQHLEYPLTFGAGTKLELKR | kon | M⁻¹ s⁻¹ | 265000 |
